Taken from the Immune Epitope Database (IEDB).

# MEASURED_ON: HLA-A*02:01
# ASSAY_NAME: IEDB peptide-MHC binding, purified MHC/competitive/radioactivity; bounds were set here for any values at or beyond the usual limits of such assays
# CONDITION_NOTES: source organism: Human gammaherpesvirus 8
I'd appreciate it if you could supply log10 of IC50 values for the items below.
Note the log scale: values are log10 of IC50 expressed in nM.

Problem: Give the measured log10 of IC50 of QLASILGCVD .
Solution: 2.49

Problem: Proceed to HLDFWHHEV
Solution: 1.30

Problem: Proceed to LLGTWMFSV
Solution: 0.48

Problem: Proceed to ITATFTAPL
Solution: 1.58

Problem: Proceed to FVAVHPVDV
Solution: 1.28

Problem: Proceed to ALIGTMCGI
Solution: 1.52

Problem: Proceed to RLGAIPPLV
Solution: 2.52

Problem: Proceed to ATLGTVILL
Solution: 2.25

Problem: Proceed to KLLGTWMFSV
Solution: 0.48

Problem: Proceed to SLVTGFINFI
Solution: 2.38

Problem: Proceed to SVDFYQFRV
Solution: 2.49

Problem: Proceed to ALIGTMCGIL
Solution: 2.62

Problem: Proceed to FIALNLSFI
Solution: 1.89

Problem: Proceed to RLYQASAVM
Solution: 2.44

Problem: Proceed to SVSDFDLRI
Solution: 2.62

Problem: Proceed to GALLPGNLV
Solution: 2.70

Problem: Proceed to FKNSSNLFT
Solution: 1.81

Problem: Proceed to RLSNRICFWA
Solution: 2.58

Problem: Proceed to FLYVVCSLA
Solution: 0.60

Problem: Proceed to RIFYNILEI
Solution: 1.79

###

# MEASURED_ON: HLA-A*02:01
# ASSAY_NAME: IEDB peptide-MHC binding, purified MHC/competitive/radioactivity; bounds were set here for any values at or beyond the usual limits of such assays
# CONDITION_NOTES: source organism: Homo sapiens
QUANTITY_KIND: IC50 (nM)
Express your answer in nM, writing the number without its unit.

Problem: Give the measured IC50 of TLGTVILLV .
Solution: 60
